Provide the reported melting point of each item.
Report the figure in °C without appending any unit label.

get_value(item= `COc1cc2ncnc(Nc3ccc4c(c3F)CCN4C(=O)Cc3cc(F)ccc3F)c2cc1OC` , readout=melting point) returns 210

get_value(item= `COc1cc2ncnc(Nc3ccc4c(c3)CCN4C(=O)Cc3c(C)[nH]c4ccccc34)c2cc1OCCCN1CCOCC1` , readout=melting point) returns 216

get_value(item= `COc1cc2ncnc(Nc3ccc4c(c3)CCN4C(=O)Cn3ccc4ccccc43)c2cc1OC` , readout=melting point) returns 176

get_value(item= `COc1cc2ncnc(Nc3ccc4c(c3)CCN4C(=O)Cc3c(C)n(C)c4ccccc34)c2cc1OC` , readout=melting point) returns 168

get_value(item= `COc1cc2ncnc(Nc3ccc4c(c3)CCN4C(=O)Cc3c(Br)cnn3C)c2cc1OC` , readout=melting point) returns 170

get_value(item= `COc1cc2ncnc(Nc3ccc4c(c3)CCN4C(=O)Cc3cccc(C)n3)c2cc1OC` , readout=melting point) returns 248

get_value(item= `COc1cc2ncnc(Nc3ccc4c(c3)CCN4C(=O)Cc3nn(C)c4ccccc34)c2cc1OC` , readout=melting point) returns 158

get_value(item= `COc1cc2ncnc(Nc3ccc4c(c3)CCN4C(=O)Cn3ccnc3)c2cc1OC` , readout=melting point) returns 174

get_value(item= `COc1cc2ncnc(Nc3ccc4c(c3)CCN4C(=O)Cc3coc4ccccc34)c2cc1OC` , readout=melting point) returns 165

get_value(item= `COc1cc2ncnc(Nc3ccc4c(c3)CCN4C(=O)Cc3csc4ccccc34)c2cc1OC` , readout=melting point) returns 161

get_value(item= `COc1cc2ncnc(Nc3ccc4c(c3F)CCN4C(=O)Cc3c(C)[nH]c4ccccc34)c2cc1OC` , readout=melting point) returns 174

get_value(item= `COc1cc2ncnc(Nc3ccc4c(c3)CCN4C(=O)Cc3cccs3)c2cc1OC` , readout=melting point) returns 219

get_value(item= `COc1cc2ncnc(Nc3ccc4c(c3)CCN4C(=O)Cc3ccn(C)n3)c2cc1OC` , readout=melting point) returns 199

get_value(item= `COc1cc2ncnc(Nc3ccc4c(c3)CCN4C(=O)CN3C(=O)c4ccccc4C3=O)c2cc1OC` , readout=melting point) returns 190

get_value(item= `COc1cc2ncnc(Nc3ccc4c(c3)CCN4C(=O)Cc3c[nH]c4ccccc34)c2cc1OC` , readout=melting point) returns 180

get_value(item= `COCCOc1cc2ncnc(Nc3ccc4c(c3)CCN4C(=O)Cc3c(C)[nH]c4ccccc34)c2cc1OCCOC` , readout=melting point) returns 186
